# Experiment summary: Biodistribution in Daudi lymphoma xenograft bearing SCID mice
# Type: in vivo, mouse
# Run conditions: female, CB-17 SCID, mouse, stomach, iv, 15.2 MBq, total radioactivity, tracer only, i.v., 1.5 h p.i., mean ± SD; read-out: Stomach uptake
Square brackets hold non-standard residues; d marks the D form. Side chains are listed from the residue outwards. Peptide text beside a SMILES is read from it. * marks the point of attachment. DOTA = O=C(O)CN1CCN(CC(=O)O)CCN(CC(=O)*)CCN(CC(=O)O)CC1; NOTA = O=C(O)CN1CCN(CC(=O)O)CCN(CC(=O)*)CC1; 2Nal = N[C@@H](Cc1ccc2ccccc2c1)C(=O)O; dNMeOrn = CN[C@H](CCCN)C(=O)O; 4Amb = NCc1ccc(C(=O)O)cc1
Reported endpoint: tissue uptake at 1.5 h (%ID/g)
API: value field is a number in %ID/g; no unit string.

>  <Molecule>
CN1C(=O)[C@@H](Cc2ccc(O)cc2)NC(=O)CNC(=O)[C@H](Cc2ccc3ccccc3c2)NC(=O)[C@H](CCCNC(=N)N)NC(=O)[C@H]1CCCNC(=O)c1ccc(CNC(=O)CN2CCN(CC(=O)O)CCN(CC(=O)O)CCN(CC(=O)O)CC2)cc1 [[^68Ga]pentixafor, metal not drawn] (cyclo([dY][dNMeOrn]([4Amb-DOTA])R[2Nal]G))

>  <Reported endpoint>
tissue uptake at 1.5 h

>  <Unit spec>
%ID/g

>  <Result value>
0.48

$$$$

Now consider a different molecule.
[in] Name the reported tissue uptake at 1.5 h value associated with the molecule CN1C(=O)[C@@H](Cc2ccc(O)cc2)NC(=O)CNC(=O)[C@H](Cc2ccc3ccccc3c2)NC(=O)[C@H](CCCNC(=N)N)NC(=O)[C@H]1CCCNC(=O)c1ccc(CNC(=O)CN2CCN(CC(=O)O)CCN(CC(=O)O)CC2)cc1 [[^68Ga]NOTA-pentixafor, metal not drawn] (cyclo([2Nal]G[dY][dNMeOrn]([4Amb-NOTA])R))
[out] 0.45

* * *

# Experiment summary: Biodistribution in Daudi lymphoma xenograft bearing SCID mice
# Assay type: in vivo, mouse
# Run conditions: female, CB-17 SCID, mouse, intestine, iv, total radioactivity, co-injection of 50 μg AMD3100, n = 3, 1.5 h p.i., mean ± SD; read-out: Intestine uptake
Square brackets hold non-standard residues; d marks the D form. Side chains are listed from the residue outwards. Peptide text beside a SMILES is read from it. * marks the point of attachment. NOTA = O=C(O)CN1CCN(CC(=O)O)CCN(CC(=O)*)CC1; 2Nal = N[C@@H](Cc1ccc2ccccc2c1)C(=O)O; dNMeOrn = CN[C@H](CCCN)C(=O)O; 4Amb = NCc1ccc(C(=O)O)cc1
Reported endpoint: tissue uptake at 1.5 h (%ID/g)
API: value field is a number in %ID/g; no unit string.

[in] Name the reported tissue uptake at 1.5 h value associated with the compound CN1C(=O)[C@@H](Cc2ccc(O)cc2)NC(=O)CNC(=O)[C@H](Cc2ccc3ccccc3c2)NC(=O)[C@H](CCCNC(=N)N)NC(=O)[C@H]1CCCNC(=O)c1ccc(CNC(=O)CN2CCN(CC(=O)O)CCN(CC(=O)O)CC2)cc1 [[^68Ga]NOTA-pentixafor, metal not drawn] (cyclo([2Nal]G[dY][dNMeOrn]([4Amb-NOTA])R))
[out] 3.97
